Biological target: human ferroportin (Homo sapiens, UniProt Q9NP59)
Construct: luciferase reporter (probably NanoLuc, inferred from the Nano-Glo Luciferase Assay System read-out); expressed in transfected cells; host or cells: CHO cells, stably transfected, expression induced with doxycycline
Sequence (Q9NP59 whole entry): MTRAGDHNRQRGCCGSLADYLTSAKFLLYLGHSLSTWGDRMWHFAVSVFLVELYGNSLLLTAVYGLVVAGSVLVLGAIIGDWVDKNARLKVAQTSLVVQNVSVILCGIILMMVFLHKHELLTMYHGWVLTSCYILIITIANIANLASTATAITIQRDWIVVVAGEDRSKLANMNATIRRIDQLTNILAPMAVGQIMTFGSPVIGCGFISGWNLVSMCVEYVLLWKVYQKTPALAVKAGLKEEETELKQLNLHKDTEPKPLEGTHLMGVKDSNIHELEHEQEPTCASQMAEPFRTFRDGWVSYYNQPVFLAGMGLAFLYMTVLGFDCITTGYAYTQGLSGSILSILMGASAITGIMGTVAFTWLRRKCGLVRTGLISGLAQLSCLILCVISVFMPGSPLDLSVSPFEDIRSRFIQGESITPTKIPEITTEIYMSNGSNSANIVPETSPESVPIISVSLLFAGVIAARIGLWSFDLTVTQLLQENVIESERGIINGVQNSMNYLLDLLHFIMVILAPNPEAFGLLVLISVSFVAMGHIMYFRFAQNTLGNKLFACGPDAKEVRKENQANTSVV
Assay: In-vitro ferroportin internalization assay (luciferase reporter)
Format: cell-based
Details: average pEC50; stably-transfected CHO cell line expressing human ferroportin tagged to a luciferase reporter; 6 h incubation with test compound
property label: pEC50

[
  {
    "compound": "CCc1cc(NCCN2CCN(CC)CC2)nc(-c2ccccn2)n1",
    "target entity": "human ferroportin (Homo sapiens, UniProt Q9NP59)",
    "pEC50": 5.3
  },
  {
    "compound": "OC1CCN(c2nc(-c3ccccn3)nc3scc(-c4ccccc4)c23)CC1",
    "target entity": "human ferroportin (Homo sapiens, UniProt Q9NP59)",
    "pEC50": 6
  },
  {
    "compound": "CC(Nc1nc(-c2ccccn2)nc2scc(-c3ccccc3)c12)C(=O)NC(C)(C)C (centres unmarked)",
    "target entity": "human ferroportin (Homo sapiens, UniProt Q9NP59)",
    "pEC50": 6.8
  },
  {
    "compound": "c1ccc(-c2csc3nc(-c4ccccn4)nc(N4CCCC4)c23)cc1",
    "target entity": "human ferroportin (Homo sapiens, UniProt Q9NP59)",
    "pEC50": 5.9
  },
  {
    "compound": "CN(CC(=O)N1CC2CC(C2)C1)c1nc(-c2cc(OCCO)ccn2)nc2c1CCC2",
    "target entity": "human ferroportin (Homo sapiens, UniProt Q9NP59)",
    "pEC50": 8.1
  },
  {
    "compound": "OCCNc1nc(-c2ccccn2)nc2scc(-c3ccccc3)c12",
    "target entity": "human ferroportin (Homo sapiens, UniProt Q9NP59)",
    "pEC50": 5.3
  },
  {
    "compound": "Cc1sc2nc(-c3ccccn3)nc(NCCCO)c2c1-c1ccccc1",
    "target entity": "human ferroportin (Homo sapiens, UniProt Q9NP59)",
    "pEC50": 5.9
  },
  {
    "compound": "COc1ccnc(-c2nc3c(c(N(C)CC(=O)N[C@H]4CCC[C@H]4O)n2)CCC3)c1 (single isomer, unassigned)",
    "target entity": "human ferroportin (Homo sapiens, UniProt Q9NP59)",
    "pEC50": 7.2
  }
]
